These entries and their values trace back to PubChem BioAssay (NCI).

Measured GI50, listed per entry for reference.
Tested on: TK-10 renal
Test: NCI tumour cell line growth inhibition, 48 h
assayMetric: GI50

[
  {
    "compound": "Nc1nc(=O)n(C2CC(O)C(CO)O2)cc1F (configuration not stated)",
    "recordedValue": "> 100 µM"
  },
  {
    "compound": "Cc1nnc(C[C@@H]2C=C(c3ccc(Cl)cc3)c3ccccc3-n3c(C)nnc32)o1",
    "recordedValue": "0.148 µM"
  },
  {
    "compound": "Cc1cc(S(=O)(=O)/N=C(\\N)Nc2cccc(O)c2)c(SCc2ccccc2)cc1Cl",
    "recordedValue": "21.2 µM"
  },
  {
    "compound": "CN1CCN(CCCOc2cccc3nc(Nc4cc(Cl)cc(Cl)c4)ccc23)CC1",
    "recordedValue": "1.75 µM"
  },
  {
    "compound": "COc1ccccc1-n1cnc(N)c1C(=O)c1cc(OC)c(OC)c(OC)c1",
    "recordedValue": "5.21 µM"
  },
  {
    "compound": "O=C(Nc1ccc(OS(=O)(=O)c2ccc(F)cc2)cc1)C12CC3CC(CC(C3)C1)C2",
    "recordedValue": "21.5 µM"
  },
  {
    "compound": "Cc1ccc2c(c1)[n+](=O)c(C(=O)c1cccs1)c(C(F)(F)F)n2[O-]",
    "recordedValue": "0.718 µM"
  },
  {
    "compound": "CN(C)c1ccc(/C=C/C(=O)c2ccc(Nc3nc(Nc4ccc(F)cc4)nc(Nc4ccc(F)cc4)n3)cc2)cc1",
    "recordedValue": "28.7 µM"
  },
  {
    "compound": "C[C@H]1CCC/C=C/C2CC(OC(=O)CN(C)C)CC2C(OC(=O)CN(C)C)/C=C/C(=O)O1 (some centres not stated)",
    "recordedValue": "0.318 µM"
  },
  {
    "compound": "Cc1cccc2c(C3=C(c4cn(C)c5ccccc45)C(=O)NC3=O)cn(C)c12",
    "recordedValue": "> 25 µM"
  },
  {
    "compound": "O=C(COc1ccc(/C=C2\\Oc3ccc4ccccc4c3C2=O)cc1)c1ccc([N+](=O)[O-])cc1",
    "recordedValue": "16.6 µM"
  },
  {
    "compound": "OCC#CCOCC#Cc1ccccc1C#CCOCC#CCO",
    "recordedValue": "24.4 µM"
  },
  {
    "compound": "NC(N)=NN=c1c(=O)c2ccccc2c1=O",
    "recordedValue": "22.6 µM"
  },
  {
    "compound": "COc1ccc(C(=O)/C=C/c2sc(Cl)nc2Cl)cc1",
    "recordedValue": "4.57 µM"
  },
  {
    "compound": "CCn1cnc(C[C@H](NC(=O)[C@H](CCCCNC(=O)Nc2cc(C(F)(F)F)cc(C(F)(F)F)c2)NC(=O)Nc2cc(C(F)(F)F)cc(C(F)(F)F)c2)C(=O)OC)c1",
    "recordedValue": "7.46 µM"
  },
  {
    "compound": "Oc1ccc(NC(=S)Nc2ccccc2)cc1",
    "recordedValue": "> 100 µM"
  },
  {
    "compound": "CC(C)C[C@H](CC(=O)O)C(=O)N[C@@H](Cc1c[nH]c2ccccc12)C(=O)N[C@@H](C)c1ccccc1",
    "recordedValue": "> 25 µM"
  }
]
